# EXPERIMENTAL SYSTEM: human apelin receptor (APJ, AGTRL-one, APLNR) (Homo sapiens, UniProt P35414)
# Sequence (P35414 1-380): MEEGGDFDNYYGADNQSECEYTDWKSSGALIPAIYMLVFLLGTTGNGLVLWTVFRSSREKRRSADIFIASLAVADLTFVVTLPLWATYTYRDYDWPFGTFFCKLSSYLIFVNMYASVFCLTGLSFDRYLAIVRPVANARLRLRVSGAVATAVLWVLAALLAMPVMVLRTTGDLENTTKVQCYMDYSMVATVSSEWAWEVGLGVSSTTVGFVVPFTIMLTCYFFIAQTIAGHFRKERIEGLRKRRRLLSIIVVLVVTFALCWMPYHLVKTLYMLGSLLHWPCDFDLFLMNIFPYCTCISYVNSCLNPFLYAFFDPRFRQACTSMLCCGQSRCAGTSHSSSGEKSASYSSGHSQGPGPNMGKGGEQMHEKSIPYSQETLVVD
# PROCEDURE DETAILS: cell-based cAMP TR-FRET assay of apelin receptor activation
# RUN CONDITIONS: CHO cells expressing human APJ, forskolin-stimulated cAMP, 0.5 h incubation, 50% of control (apelin-13, 1 nM) response; read-out: Potency Category (EC50)
pEC50: −log10 of the molar value.
// pEC50 lookup, one value per entry

| MOLECULE | QUANTITY | OBSERVED VALUE |
| --- | --- | --- |
| CCS(=O)(=O)c1ccc(C(Oc2ccc(C3CCCC3)cc2)C(=O)Nc2nc3cc(OC)c(OC)cc3s2)cc1 (stereo not drawn) | pEC50 | 6.30 to 6.70 |
| CCS(=O)(=O)c1ccc(C(Oc2ccc(C#N)cc2)C(=O)Nc2nc3ccc(OCCO)cc3s2)cc1 (stereo not drawn) | pEC50 | < 6.30 |
| CCS(=O)(=O)c1ccc(CC(=O)Nc2nc3cc(OC)c(OC)cc3s2)cc1 | pEC50 | 6.30 to 6.70 |
| CCS(=O)(=O)c1ccc(C(Oc2ccc(C#N)cc2)C(=O)Nc2cc3ccccc3[nH]2)cc1 (stereo not drawn) | pEC50 | < 6.30 |
| CCS(=O)(=O)c1ccc(C(Oc2ccc(C#N)cc2)C(=O)Nc2nc3cc(OCCN4CCOCC4)c(OC)cc3s2)cc1 (stereo not drawn) | pEC50 | < 6.30 |

## Input Reported pEC50 for CCS(=O)(=O)c1ccc(C(Oc2ccc(OCc3ccccc3)cc2)C(=O)Nc2nc3cc(OC)c(OC)cc3s2)cc1 (stereo not drawn) : what is it?
## Output < 6.30

## Input Reported pEC50 for CCS(=O)(=O)c1ccc(C(Oc2ccccc2Cl)C(=O)Nc2nc3cc(OC)c(OC)cc3s2)cc1 (stereo not drawn) : what is it?
## Output < 6.30

## Input Reported pEC50 for COc1ccc(OC(C(=O)Nc2nc3cc(OC)c(OC)cc3s2)c2ccccc2S(=O)(=O)c2ccc(OC)cc2)cc1 (stereo not drawn) : what is it?
## Output < 6.30

## Input Reported pEC50 for CCS(=O)(=O)c1ccc(C(Oc2ccc(F)cc2)C(=O)Nc2nc3cc(OC)c(OC)cc3s2)cc1 (stereo not drawn) : what is it?
## Output < 6.30

## Input Reported pEC50 for CCS(=O)(=O)c1ccc(C(Oc2ccc(C#N)cc2)C(=O)Nc2nc3cc(OCCF)c(OC)cc3s2)cc1 (stereo not drawn) : what is it?
## Output > 7.30

## Input Reported pEC50 for COc1cc2nc(NC(=O)C(Oc3ccccc3)c3ccc(C#N)cc3)sc2cc1OC (stereo not drawn) : what is it?
## Output < 6.30

## Input Reported pEC50 for CCS(=O)(=O)c1ccc(C(CC2CC2)C(=O)Nc2nc3cc(OC)c(OC)cc3s2)cc1 (stereo not drawn) : what is it?
## Output < 6.30

## Input Reported pEC50 for CCS(=O)(=O)c1ccc(C(Oc2ccc(C(F)(F)F)cc2)C(=O)Nc2nc3cc(OC)c(OC)cc3s2)cc1 (stereo not drawn) : what is it?
## Output 6.30 to 6.70

## Input Reported pEC50 for CCS(=O)(=O)c1ccc(C(Oc2ccc3ccccc3c2)C(=O)Nc2nc3cc(OC)c(OC)cc3s2)cc1 (stereo not drawn) : what is it?
## Output < 6.30

## Input Reported pEC50 for COc1cc2nc(NC(=O)C(Oc3ccc(C(=O)NCCN4CCCC4)cc3)c3ccc(C#N)cc3)sc2cc1OC (stereo not drawn) : what is it?
## Output 6.30 to 6.70

---

# EXPERIMENTAL SYSTEM: human apelin receptor (APJ, AGTRL-one, APLNR) (Homo sapiens)
# PROCEDURE DETAILS: cell-based cAMP TR-FRET assay of apelin receptor activation
# RUN CONDITIONS: CHO cells expressing human APJ, forskolin-stimulated cAMP, 0.5 h incubation, 50% of control (apelin-13, 1 nM) response; read-out: Potency Category (EC50)
pEC50: −log10 of the molar value.
// pEC50 lookup, one value per entry

| MOLECULE | pEC50 |
| --- | --- |
| COc1ccc(C(Oc2ccc(C#N)cc2)C(=O)Nc2nc3cc(OC)c(OC)cc3s2)cc1 (stereo not shown) | > 7.30 |
| CCS(=O)(=O)c1ccc(C(Oc2ccc(C3CCCCC3)cc2)C(=O)Nc2nc3cc(OC)c(OC)cc3s2)cc1 (stereo not shown) | < 6.30 |
| COCCOc1ccc(OC(C(=O)Nc2nc3cc(OC)c(OC)cc3s2)c2ccc(C#N)cc2)cc1 (stereo not shown) | 7.00 to 7.30 |

## Input Reported pEC50 for CCOc1c(OC)ccc2nc(NC(=O)C(Oc3ccc(C#N)cc3)c3ccc(S(=O)(=O)CC)cc3)sc12 (stereo not shown) : what is it?
## Output > 7.30

## Input Reported pEC50 for CCCc1ccc(OC(C(=O)Nc2nc3cc(OC)c(OC)cc3s2)c2ccc(S(=O)(=O)CC)cc2)cc1 (stereo not shown) : what is it?
## Output 6.30 to 6.70

## Input Reported pEC50 for CCS(=O)(=O)c1ccc(C(Oc2ccc(C#N)cc2)C(=O)Nc2nc3ncc(OC)cc3s2)cc1 (stereo not shown) : what is it?
## Output < 6.30

## Input Reported pEC50 for COc1cc2nc(NC(=O)C(Oc3ccc(C#N)cc3)c3ccccc3)sc2cc1OC (stereo not shown) : what is it?
## Output 6.70 to 7.00

## Input Reported pEC50 for COC(=O)c1ccc(C(Oc2ccc(C#N)cc2)C(=O)Nc2nc3cc(OC)c(OC)cc3s2)cc1 (stereo not shown) : what is it?
## Output 6.70 to 7.00

## Input Reported pEC50 for COc1cc2nc(NC(=O)C(Oc3ccc(C#N)cc3)c3ccc(OCCN(C)C)cc3)sc2cc1OC (stereo not shown) : what is it?
## Output > 7.30

## Input Reported pEC50 for CCS(=O)(=O)c1ccc(C(Oc2ccc(C#N)cc2)C(=O)Nc2nc3cnc(OC)cc3s2)cc1 (stereo not shown) : what is it?
## Output < 6.30

---

// pEC50 lookup, one value per entry
# EXPERIMENTAL SYSTEM: UniProt:P35414
# Sequence (P35414 1-380): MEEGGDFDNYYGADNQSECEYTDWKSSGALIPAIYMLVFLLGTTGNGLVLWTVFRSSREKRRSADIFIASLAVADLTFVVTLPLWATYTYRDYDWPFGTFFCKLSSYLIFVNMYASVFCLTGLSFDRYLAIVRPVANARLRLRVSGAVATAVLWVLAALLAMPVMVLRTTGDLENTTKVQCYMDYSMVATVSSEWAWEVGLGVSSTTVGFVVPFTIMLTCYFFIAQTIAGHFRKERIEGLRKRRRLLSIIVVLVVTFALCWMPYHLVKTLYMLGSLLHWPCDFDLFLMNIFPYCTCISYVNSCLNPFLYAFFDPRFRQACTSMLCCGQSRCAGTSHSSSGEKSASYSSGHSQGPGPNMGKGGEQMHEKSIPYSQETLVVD
# PROCEDURE DETAILS: cell-based cAMP TR-FRET assay of apelin receptor activation
# RUN CONDITIONS: CHO cells expressing human APJ, forskolin-stimulated cAMP, 0.5 h incubation, 50% of control (apelin-13, 1 nM) response; read-out: Potency Category (EC50)
pEC50: −log10 of the molar value.

| COMPOUND | OBSERVED VALUE |
| --- | --- |
| COc1cc2nc(NC(=O)Cc3cccc(C(=O)O)c3)sc2cc1OC | < 6.30 |
| CCS(=O)(=O)c1ccc(C(Oc2ccccc2I)C(=O)Nc2nc3cc(OC)c(OC)cc3s2)cc1 (stereo not shown) | 6.30 to 6.70 |

## Input What reported pEC50 corresponds to COc1cc2nc(NC(=O)C(Oc3ccc(C#N)cc3)c3ccc(Cl)cc3)sc2cc1OC (stereo not shown) on UniProt:P35414?
## Output 6.70 to 7.00

## Input What reported pEC50 corresponds to CCS(=O)(=O)c1ccc(C(Oc2ccc(C#N)c(F)c2)C(=O)Nc2nc3cc(OC)c(OC)cc3s2)cc1 (stereo not shown) on UniProt:P35414?
## Output > 7.30

This collection of values is drawn from patent US12071414B2.
